Kindly state kon for each of the entries shown.
Biological target: T1, Human B7-H4 ECD-Flag-His10 (monomeric) (human, UniProt Q7Z7D3 25-259)
T1 construct: Minimally biotinylated for KinExA; also called hB7H4-ECD-Flag-His10; B7-H4-FLAG
T1 sequence: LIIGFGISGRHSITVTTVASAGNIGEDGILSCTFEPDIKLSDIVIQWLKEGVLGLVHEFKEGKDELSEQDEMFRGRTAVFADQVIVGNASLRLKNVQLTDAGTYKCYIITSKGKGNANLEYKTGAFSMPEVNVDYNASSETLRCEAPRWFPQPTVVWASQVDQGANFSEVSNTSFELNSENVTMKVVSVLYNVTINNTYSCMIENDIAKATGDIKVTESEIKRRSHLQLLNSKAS
Test: Octet BLI, hIgG1 on Protein G (n = 1)
Give me the value, and tack the unit on after it.

binder	kon
ZY0EPQ-E02 human IgG1 (antibody, V domains shown) VH: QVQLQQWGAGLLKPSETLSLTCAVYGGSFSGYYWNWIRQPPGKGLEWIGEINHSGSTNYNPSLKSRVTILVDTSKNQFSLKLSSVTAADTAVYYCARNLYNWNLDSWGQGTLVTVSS VL: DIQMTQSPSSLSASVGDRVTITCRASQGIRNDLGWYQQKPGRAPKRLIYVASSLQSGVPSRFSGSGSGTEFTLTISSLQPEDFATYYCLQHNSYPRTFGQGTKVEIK	85900 M⁻¹ s⁻¹

Fill in kon for record ZY0EOB-F05 human IgG1 (antibody, V domains shown) VH: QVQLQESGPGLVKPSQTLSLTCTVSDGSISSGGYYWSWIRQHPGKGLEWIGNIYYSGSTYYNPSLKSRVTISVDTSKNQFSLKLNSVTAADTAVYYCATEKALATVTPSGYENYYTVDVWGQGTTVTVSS VL: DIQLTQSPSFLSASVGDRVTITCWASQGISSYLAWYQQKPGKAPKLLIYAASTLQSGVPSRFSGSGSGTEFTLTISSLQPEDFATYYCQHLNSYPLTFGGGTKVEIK
31000 M⁻¹ s⁻¹
